System: human mitochondrial ribosome A1555G mutant (Mit 13 A1555G hybrid)
test.details: Selectivity ratio of IC50 for inhibition of human mitochondrial ribosome Mit 13 A1555G mutant hybridized with Mycobacterium smegmatis ribosomes to IC50 for inhibition of Mycobacterium smegmatis wild type ribosomes
Type: toxicity
setup.conditions: read-out: Ratio IC50

- compound: "CCN[C@@H]1C[C@H](N)[C@@H](O[C@H]2OC(CN)=C(SCC)C[C@H]2N)[C@H](O)[C@H]1O[C@H]1OC[C@](C)(O)[C@H](NC)[C@H]1O"
  selectivity ratio: 69
- compound: "CCCCC1=C(CN)O[C@H](O[C@H]2[C@H](O)[C@@H](O[C@H]3OC[C@](C)(O)[C@H](NC)[C@H]3O)[C@H](NCC)C[C@@H]2N)[C@H](N)C1"
  selectivity ratio: 37
- compound: "NC[C@@H]1O[C@H](O[C@H]2[C@@H](O)[C@H](O[C@@H]3[C@@H](O)[C@H](N)C[C@H](N)[C@H]3O[C@H]3O[C@H](CO)[C@@H](O)[C@H](O)[C@H]3N)O[C@@H]2CO)[C@H](N)[C@@H](O)[C@@H]1O [PAROMOMYCIN]"
  selectivity ratio: 315
- compound: "CCN[C@@H]1C[C@H](N)[C@@H](O[C@H]2OC(CN)=CC[C@H]2N)[C@H](O)[C@H]1O[C@H]1OC[C@](C)(O)[C@H](NC)[C@H]1O [NETILMICIN]"
  selectivity ratio: 35
- compound: "CCN[C@@H]1C[C@H](N)[C@@H](O[C@H]2OC(CN)=C(Br)C[C@H]2N)[C@H](O)[C@H]1O[C@H]1OC[C@](C)(O)[C@H](NC)[C@H]1O"
  selectivity ratio: 12
- compound: "CCS[C@H]1[C@H](O)[C@@H](N)[C@@H](O[C@H]2[C@H](O[C@@H]3O[C@H](CO)[C@@H](O[C@H]4O[C@@H](CN)[C@@H](O)[C@H](O)[C@H]4N)[C@H]3O)[C@@H](O)[C@H](N)C[C@@H]2N)O[C@@H]1CO"
  selectivity ratio: 1430
- compound: "CCN[C@@H]1C[C@H](N)[C@@H](O[C@H]2OC(CN)=C(c3ccccc3)C[C@H]2N)[C@H](O)[C@H]1O[C@H]1OC[C@](C)(O)[C@H](NC)[C@H]1O"
  selectivity ratio: 13
- compound: "CCN[C@@H]1C[C@H](N)[C@@H](O[C@H]2OC(CN)=C(I)C[C@H]2N)[C@H](O)[C@H]1O[C@H]1OC[C@](C)(O)[C@H](NC)[C@H]1O"
  selectivity ratio: 15
- compound: "CCC[C@H]1[C@H](O)[C@@H](N)[C@@H](O[C@H]2[C@H](O[C@@H]3O[C@H](CO)[C@@H](O[C@H]4O[C@@H](CN)[C@@H](O)[C@H](O)[C@H]4N)[C@H]3O)[C@@H](O)[C@H](N)C[C@@H]2N)O[C@@H]1CO"
  selectivity ratio: 1680
- compound: "CCN[C@@H]1C[C@H](N)[C@@H](O[C@H]2OC(CN)=C(Cl)C[C@H]2N)[C@H](O)[C@H]1O[C@H]1OC[C@](C)(O)[C@H](NC)[C@H]1O"
  selectivity ratio: 15
